- target_under_test: recombinant RORγ Ligand Binding Domain (LBD) (Homo sapiens (Human))
- Sequence (P51449 269-508): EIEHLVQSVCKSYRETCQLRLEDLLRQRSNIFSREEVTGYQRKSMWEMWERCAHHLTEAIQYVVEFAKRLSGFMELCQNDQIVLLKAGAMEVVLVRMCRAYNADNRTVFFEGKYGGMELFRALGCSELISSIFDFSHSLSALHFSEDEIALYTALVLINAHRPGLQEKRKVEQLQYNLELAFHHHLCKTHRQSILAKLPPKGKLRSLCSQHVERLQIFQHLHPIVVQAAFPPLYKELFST
- measurement_protocol: Radio-Ligand RORγ Binding Assay (Assay 1)
- condition_notes: SPA competition with 25-hydroxy [26,27-3H]-cholesterol, cell-free; read-out: RORγ Binding Ki Range
- Experimental: Radio-Ligand RORγ Binding Assay (Assay 1) Compounds of the present invention were tested for ability to bind to RORγ in a cell-free competition assay with commercially available radio-ligand (RL), 25-hydroxy [26,27-^3H]-cholesterol (PerkinElmer, Cat. #NET674250UC), for a ligand binding site on a recombinant RORγ Ligand Binding Domain (LBD) protein expressed as a 6×His-Glutathione-S-Transferase (GST) fusion. […] SPA signal for tritium beta radiation was registered on PerkinElmer Microbeta plate reader. […]
Recorded Ki values for a group of compounds are listed next.

smiles_text: CC(C)[C@H]1c2ncc(C(=O)NCc3ccn(C)n3)cc2CN1Cc1ccc(C(F)(F)F)cc1
target_under_test: recombinant RORγ Ligand Binding Domain (LBD) (Homo sapiens (Human))
endpoint_result: > 1 µM
//
smiles_text: COC(=O)c1ccc(CNC(=O)c2cnc3c(c2)CN(Cc2ccc(C(F)(F)F)cc2)[C@H]3C(C)C)nc1
target_under_test: recombinant RORγ Ligand Binding Domain (LBD) (Homo sapiens (Human))
endpoint_result: > 1 µM
//
smiles_text: CCS(=O)(=O)c1ccc(CNC(=O)c2cnc3c(c2)CN(CC2CCC(F)(F)CC2)[C@H]3C(C)C)nc1
target_under_test: recombinant RORγ Ligand Binding Domain (LBD) (Homo sapiens (Human))
endpoint_result: < 0.1 µM
//
smiles_text: CC(C)[C@H]1c2ncc(C(=O)NCc3ccccn3)cc2CN1Cc1ccc(C(F)(F)F)cc1
target_under_test: recombinant RORγ Ligand Binding Domain (LBD) (Homo sapiens (Human))
endpoint_result: 0.1 to 1 µM
//
smiles_text: CC(C)[C@H]1c2ncc(C(=O)NC[C@H]3CC[C@H](CC(=O)O)CC3)cc2CN1Cc1ccc(C(F)(F)F)cc1
target_under_test: recombinant RORγ Ligand Binding Domain (LBD) (Homo sapiens (Human))
endpoint_result: < 0.1 µM

// returns reported Ki for input CC(C)[C@H]1c2ncc(C(=O)NCCc3ccccn3)cc2CN1Cc1ccc(C(F)(F)F)cc1
> 1 µM

What value of Ki has been reported for the following compound? CC(C)[C@H]1c2ncc(C(=O)NC3(CO)Cc4ccccc4C3)cc2CN1Cc1ccc(C(F)(F)F)cc1
> 1 µM
